target.or.test.system: UniProt O76074
assay.comment: Inhibition of human phosphodiesterase 5 (PDE 5), SPA assay
Assay type: biochemical
run.parameters: PDE 5 preparation from human platelets, [8-3H] cGMP substrate
readout.type: IC50 (nM)

>  <molecule>
Cc1nc(C)c(-c2nc(-c3nn(Cc4ccccc4F)c4ncccc34)nc3c2C(C)(C)C(=O)N3)s1

>  <target.or.test.system>
UniProt O76074

>  <IC50 [nM]>
1100

$$$$
>  <molecule>
Cc1nc(-c2nn(Cc3ccccc3F)c3ncccc23)nc2c1C(C)(C)C(=O)N2

>  <target.or.test.system>
UniProt O76074

>  <IC50 [nM]>
130

$$$$
>  <molecule>
CC1(C)C(=O)Nc2nc(-c3nn(Cc4ccccc4F)c4ncc(F)cc34)nc(CN3CCCC3=O)c21

>  <target.or.test.system>
UniProt O76074

>  <IC50 [nM]>
145

$$$$
>  <molecule>
CC1(C)C(=O)Nc2nc(-c3nn(Cc4ccccc4F)c4ncccc34)nc(CCC3CC3)c21

>  <target.or.test.system>
UniProt O76074

>  <IC50 [nM]>
260

$$$$

P = CCOC(=O)/C=C/c1nc(-c2nn(Cc3ccccc3F)c3ncccc23)nc2c1C(C)(C)C(=O)N2
Q = CC1(C)C(=O)Nc2nc(-c3nn(Cc4ccccc4F)c4ncc(F)cc34)nc(CNCC(F)(F)F)c21
R = COCCCc1nc(-c2nn(Cc3ccccc3F)c3ncccc23)nc2c1C(C)(C)C(=O)N2
S = CC1(C(=O)NC2CC2)C(=O)Nc2nc(-c3nn(CCC(F)(F)F)c4ncccc34)ncc21 (racemic)
Q. Put the entries in order of IC50, starting with the largest number. Returns: the labels listed in the requested order.
A. S, Q, P, R
(S: 4000 nM, Q: 320 nM, P: 215 nM, R: 120 nM)

# credit: patent US9505786B2
